test: modulators of HCV replicon luciferase signal, primary screen, HCV replication inhibitor project, Huh7 cells, luciferase reporter (AID 1109); details: 48 h, higher = more signal;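 also: huh7 hepatoma cells harbouring a luciferase neomycin HCV replicon reporter; luciferase luminescence as measure of HCV replicon replication; test concentration not given here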
Label TRUE when z-score is at or above -0.5; otherwise label FALSE.

Please review the following examples before continuing.
O=C1[C@H]2[C@H]3[C@H](O)[C@H](O)CC(=NOCc4ccccc4)[C@@H]3CC[C@H]2C(=O)N1c1ccc(F)cc1F    TRUE
CO[C@H]1COC(=O)CC=C[C@H](C)[C@@H](OC)COC(=O)[C@@H](C)COC(=O)CC=C[C@@H]1C    FALSE

Query :: hey, is z-score for this one >= -0.5? O=C(NN=C1C[C@@H](O)[C@@H](O)[C@@H]2[C@@H]3C(=O)N(C[C@@H]4CCCO4)C(=O)[C@@H]3CC[C@@H]12)OCc1ccccc1
Result :: TRUE

Query :: Moving on to CCOC(=O)NN=C1C[C@@H](O)[C@@H](O)[C@@H]2[C@@H]3C(=O)N([C@@H](C)c4ccccc4)C(=O)[C@@H]3CC[C@H]12
Result :: FALSE

Query :: Moving on to CCc1cc2c(nc1CC)CCN(CCC(C)=NO[C@H](C)c1cn([C@@H]3COC[C@H]3O)nn1)C2
Result :: FALSE

====

test: E. coli acrAB mutant growth effects, primary screen, E. coli filamentation inducers, strain DRC39, OD650, 48 h (AID 1179);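 also: screen aims at cell division blockers that make cells filament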; settings: E. coli DRC39 delta-acrAB growth, higher = more signal, called active from +8 up or from −8 down
Label true when z-score is at or above -0.5; otherwise label false.

Please review the following examples before continuing.
COc1ccc(COC(=O)NN=C2C[C@@H](O)[C@@H](O)[C@@H]3[C@@H]4C(=O)N(C5CCCCC5)C(=O)[C@@H]4CC[C@H]23)cc1    false
O=C1CCCC=C1C(O)CCCCBr (stereo not drawn)    true
CON=C(C)CCC(=O)OC[C@H]1O[C@H](c2ccccc2)C=C[C@@H]1Oc1ccc(OC)cc1    false
CCOC(=O)[C@H](CC(C)C)NC(=O)CCC1CC(OC(=O)NCc2ccc3c(c2)OCO3)CC2(CCCC(COC(=O)NCc3cccc(C(F)(F)F)c3)O2)O1 (stereo partly drawn)    true
C#CCCCON=C1[C@H]2CCn3c(=O)n(-c4ccccc4)c(=O)n3[C@H]2[C@H](O)[C@@H]2O[C@H]12    true

Query :: hey, is z-score for this one >= -0.5? COC(=O)C1=C(C)N(Cc2ccccc2)[C@]23O[C@](C(=O)OC)(C(=O)N2[C@@H]1c1ccccc1)C(C(=O)OC)=C3C(=O)OC
Result :: false

Query :: Moving on to CO[C@H]1COC(=O)[C@H](C)NC(=O)CC=C[C@@H](C)[C@H](OC)COC(=O)[C@@H](OCc2ccccc2)C=C[C@@H]1C
Result :: true

Query :: Moving on to O=C1C=C[C@@H](O)[C@@H]2[C@@H]3C(=O)N(c4ccc(F)cc4F)C(=O)[C@@H]3CC[C@@H]12
Result :: false

====

target: Homeobox protein Hox-A13 (Mus musculus) (UniProt Q62424); test: inhibitors of HoxA13-DNA binding, primary screen, biochemical, fluorescence polarization, labeled oligonucleotide (AID 1185); details: 15 min, higher = more signal, called active from +8 up or from −8 down
Sequence (Q62424 whole entry, looked up): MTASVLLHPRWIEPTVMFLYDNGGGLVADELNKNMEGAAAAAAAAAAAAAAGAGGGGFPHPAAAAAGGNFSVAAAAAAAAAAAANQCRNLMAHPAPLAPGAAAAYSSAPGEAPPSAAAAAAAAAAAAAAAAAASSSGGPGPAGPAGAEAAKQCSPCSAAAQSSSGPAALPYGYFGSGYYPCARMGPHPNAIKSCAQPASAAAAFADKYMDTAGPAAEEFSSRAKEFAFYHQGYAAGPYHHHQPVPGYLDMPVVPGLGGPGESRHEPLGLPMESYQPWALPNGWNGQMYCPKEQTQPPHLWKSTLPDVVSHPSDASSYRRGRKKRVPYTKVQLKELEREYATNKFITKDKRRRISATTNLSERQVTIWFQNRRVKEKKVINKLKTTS
Label label 1 when z-score is at or above -3; otherwise label label 0.

CC(C)CON=C1C[C@@H](O)[C@@H](O)[C@@H]2[C@@H]3C(=O)N(Cc4ccc5c(c4)OCO5)C(=O)[C@@H]3CC[C@H]12    label 0
CC=CC1=C(CO)C(=O)[C@@H]2O[C@@H]2C1=O    label 0
CCOC(=O)[C@H](CC(C)C)NC(=O)CCC1CC(OC(=O)NCCc2ccc(F)cc2)CC2(CCCC(COC(=O)NCCC(C)C)O2)O1 (stereo partly drawn)    label 1
COC(=O)NCC=Cc1nc(CCCO)co1    label 1
CCOC(=O)NN=C1C[C@@H](O)[C@@H](O)[C@@H]2[C@@H]3C(=O)N(c4cccc(Oc5ccccc5)c4)C(=O)[C@@H]3CC[C@@H]12    label 0

Query :: hey, is z-score for this one >= -3? CC(C)=CCCC(C)=CCON=C1C[C@@H](O)[C@@H](O)[C@@H]2[C@@H]3C(=O)N(C[C@@H]4CCCO4)C(=O)[C@@H]3CC[C@H]12
Result :: label 0

Query :: Moving on to CO[C@H]1COC(=O)CC=C[C@H](C)[C@@H](OC)COC(=O)[C@@H](C)COC(=O)CC=C[C@@H]1C
Result :: label 1

Query :: Moving on to CSCC[C@@H]1NC(=O)CC=C[C@@H](C)COC(=O)[C@@H](C)COC1=O
Result :: label 1

====

molecular target: Calmodulin-1 (Homo sapiens) (UniProt P0DP23); assay: CALM1 binders on microarrays, EGTA buffer, profiling panel, biochemical, small-molecule microarray, Cy5-labelled CALM1 (AID 1111); conditions: Cy5-CALM1 binding fluorescence, higher = more signal;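 also: labelled calmodulin applied in Tris saline Tween buffer holding calcium plus EGTA and DTT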
measure: composite z-score
One number for each entry.

Use the examples below as a reference point.
C[C@H](ON=C1[C@H]2CCn3c(=O)n(-c4ccccc4)c(=O)n3[C@H]2[C@H](O)[C@@H]2O[C@H]12)c1cn([C@H](CO)Cc2ccccc2)nn1    1.15
CO[C@@H]1C=CCC(=O)N[C@@H](C)C(=O)OC[C@@H](OC)[C@H](C)CCCC(=O)OC[C@H]1C    -1.23
CCOC(=O)[C@H](Cc1ccccc1)NC(=O)CCC1CC(OC(=O)NCc2ccc3c(c2)OCO3)CC2(CCCC(COC(=O)NCCC(C)C)O2)O1 (stereo partly specified)    0.487
C[C@@H]1NC(=O)[C@@H](C)COC(=O)[C@H](C)NC(=O)[C@@H](C)COC1=O    -0.152

Value sought for every listed molecule: composite z-score.
1. CCN1C(=O)[C@H]2[C@H]3[C@H](O)[C@H](O)CC(=NNC(=O)OCc4ccc(OC)cc4)[C@@H]3CC[C@H]2C1=O
2. COc1cccc([C@H]2Oc3ccc(OC)cc3C(=NOC[C@@H](O)[C@H]3O[C@@H]4OC(C)(C)O[C@@H]4[C@H]3O)[C@@H]2O)c1
3. C#CCCCON=C1C[C@@H](O)[C@@H](O)[C@@H]2[C@@H]3C(=O)N(C(C)(C)C)C(=O)[C@@H]3CC[C@@H]12
4. C=Cc1ccc([C@H]2N[C@H](C(=O)O)CC[C@@H]2C)cc1

Result ::
1. -0.484
2. -0.284
3. -0.389
4. -0.478

====

target: Carbonic anhydrase 2 (Homo sapiens); experiment: CAII small-molecule binders, profiling panel, biochemical, small-molecule microarray, Alexa647-labelled CAII (AID 1122); settings: CAII-A647 binding fluorescence, higher = more signal
Hi there, I'd appreciate the recorded composite z-score for every entry that follows.
Numbers only.

Value sought for every listed compound: composite z-score.
1. CO[C@@H]1COC(=O)[C@H](CCSC)NC(=O)CC=C[C@@H](C)COC(=O)[C@H](C)NC(=O)CC=C[C@H]1C
2. CCOC(=O)NN=C1C[C@@H](O)[C@@H](O)[C@@H]2[C@@H]3C(=O)N([C@@H](C)c4ccccc4)C(=O)[C@@H]3CC[C@H]12
3. COc1ccc(O[C@H]2C=C[C@@H](c3ccccc3)O[C@@H]2CON=C(C)CCC(=O)OC[C@H]2O[C@H](c3ccccc3)C=C[C@@H]2Oc2ccc(OC)cc2)cc1

Result ::
1. -0.0169
2. -0.119
3. -0.62

====

Hi there, I'd appreciate the recorded z-score for every entry that follows.
experiment: HepG2 cell viability effects, profiling panel, calcein-AM fluorescence, 48 h, basal (AID 1164); settings: higher = more signal; also: test concentration not given here
Give bare numbers.

C[C@H]1Cc2c(COc3ccccc3)nc3c(c2CO1)CN(CCOc1ccccc1)CC3    0.93
CCOC(=O)NN=C1C[C@@H](O)[C@@H](O)[C@@H]2[C@@H]3C(=O)N([C@@H](C)c4ccccc4)C(=O)[C@@H]3CC[C@H]12    -0.102
CCOC(=O)NN=C1C[C@@H](O)[C@@H](O)[C@@H]2[C@@H]3C(=O)N(Cc4ccccc4)C(=O)[C@@H]3CC[C@H]12    -1.05
CCc1cc2c(nc1CC)CCN(CCC(C)=NO[C@H](C)c1cn([C@H](CO)Cc3ccccc3)nn1)C2    0.405

# context switch: different compound, same z-score
Query :: Request the reported z-score associated with Cc1ccc(S(=O)(=O)N[C@H]2COC(=O)CC=C[C@H](C)[C@@H](NS(=O)(=O)c3ccc(C)cc3)COC(=O)CC=C[C@@H]2C)cc1
Result :: -0.521

====

assay: E. coli growth modulation, two-sided OD650, primary screen, E. coli filamentation project, strain DRC41, 24 h (AID 1093); details: OD650, 24 h, higher = more signal, called active from +8 up or from −8 down;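 also: MC1000 strain lacking acrAB efflux and sulA so SOS filamentation is blocked; test concentration not given here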
Hi there, I'd appreciate the recorded z-score for every entry that follows.
Numbers only.

COC(=O)[C@@H]1CC[C@@H](C)[C@H](c2ccc(Br)cc2)N1    0.104
CCOC(=O)[C@H](CC(C)C)NC(=O)CCC1CC(OC(=O)NCCc2ccc(F)cc2)CC2(CCCC(COC(=O)NCCc3ccccc3OC)O2)O1 (some centres not stated)    -0.0351
CCOC(=O)[C@H](Cc1ccccc1)NC(=O)OC1CC(CCC2CC(CC)=NO2)OC2(CCCC(COC(=O)NCCC(C)C)O2)C1 (some centres not stated)    1.11
C#CCCCON=C1C[C@@H](O)[C@@H](O)[C@@H]2[C@@H]3C(=O)N(c4cccc(Oc5ccccc5)c4)C(=O)[C@@H]3CC[C@H]12    0.676
C[C@H]1CC[C@H]2C(=O)O[C@H](COc3ccc(C(C)(C)C)cc3)CN2[C@@H]1c1ccc(Br)cc1    -0.535
C[C@@H](c1ccccc1)N1C(=O)[C@H]2[C@H]3[C@H](O)[C@H](O)CC(=NO[C@@H]4O[C@H](CO)[C@@H](O)[C@H](O)[C@H]4O)[C@@H]3CC[C@H]2C1=O    0.345

Query :: Request the reported z-score associated with CCOC(=O)[C@H](CC(C)C)NC(=O)CCC1CC(OC(=O)NCc2cccc3ccccc23)CC2(CCCC(COC(=O)NCCc3ccc(Cl)cc3)O2)O1 (some centres not stated)
Result :: -0.0339
